system_under_test: rNaV1.2 (Rattus norvegicus, UniProt P04775)
Sequence (P04775 whole entry): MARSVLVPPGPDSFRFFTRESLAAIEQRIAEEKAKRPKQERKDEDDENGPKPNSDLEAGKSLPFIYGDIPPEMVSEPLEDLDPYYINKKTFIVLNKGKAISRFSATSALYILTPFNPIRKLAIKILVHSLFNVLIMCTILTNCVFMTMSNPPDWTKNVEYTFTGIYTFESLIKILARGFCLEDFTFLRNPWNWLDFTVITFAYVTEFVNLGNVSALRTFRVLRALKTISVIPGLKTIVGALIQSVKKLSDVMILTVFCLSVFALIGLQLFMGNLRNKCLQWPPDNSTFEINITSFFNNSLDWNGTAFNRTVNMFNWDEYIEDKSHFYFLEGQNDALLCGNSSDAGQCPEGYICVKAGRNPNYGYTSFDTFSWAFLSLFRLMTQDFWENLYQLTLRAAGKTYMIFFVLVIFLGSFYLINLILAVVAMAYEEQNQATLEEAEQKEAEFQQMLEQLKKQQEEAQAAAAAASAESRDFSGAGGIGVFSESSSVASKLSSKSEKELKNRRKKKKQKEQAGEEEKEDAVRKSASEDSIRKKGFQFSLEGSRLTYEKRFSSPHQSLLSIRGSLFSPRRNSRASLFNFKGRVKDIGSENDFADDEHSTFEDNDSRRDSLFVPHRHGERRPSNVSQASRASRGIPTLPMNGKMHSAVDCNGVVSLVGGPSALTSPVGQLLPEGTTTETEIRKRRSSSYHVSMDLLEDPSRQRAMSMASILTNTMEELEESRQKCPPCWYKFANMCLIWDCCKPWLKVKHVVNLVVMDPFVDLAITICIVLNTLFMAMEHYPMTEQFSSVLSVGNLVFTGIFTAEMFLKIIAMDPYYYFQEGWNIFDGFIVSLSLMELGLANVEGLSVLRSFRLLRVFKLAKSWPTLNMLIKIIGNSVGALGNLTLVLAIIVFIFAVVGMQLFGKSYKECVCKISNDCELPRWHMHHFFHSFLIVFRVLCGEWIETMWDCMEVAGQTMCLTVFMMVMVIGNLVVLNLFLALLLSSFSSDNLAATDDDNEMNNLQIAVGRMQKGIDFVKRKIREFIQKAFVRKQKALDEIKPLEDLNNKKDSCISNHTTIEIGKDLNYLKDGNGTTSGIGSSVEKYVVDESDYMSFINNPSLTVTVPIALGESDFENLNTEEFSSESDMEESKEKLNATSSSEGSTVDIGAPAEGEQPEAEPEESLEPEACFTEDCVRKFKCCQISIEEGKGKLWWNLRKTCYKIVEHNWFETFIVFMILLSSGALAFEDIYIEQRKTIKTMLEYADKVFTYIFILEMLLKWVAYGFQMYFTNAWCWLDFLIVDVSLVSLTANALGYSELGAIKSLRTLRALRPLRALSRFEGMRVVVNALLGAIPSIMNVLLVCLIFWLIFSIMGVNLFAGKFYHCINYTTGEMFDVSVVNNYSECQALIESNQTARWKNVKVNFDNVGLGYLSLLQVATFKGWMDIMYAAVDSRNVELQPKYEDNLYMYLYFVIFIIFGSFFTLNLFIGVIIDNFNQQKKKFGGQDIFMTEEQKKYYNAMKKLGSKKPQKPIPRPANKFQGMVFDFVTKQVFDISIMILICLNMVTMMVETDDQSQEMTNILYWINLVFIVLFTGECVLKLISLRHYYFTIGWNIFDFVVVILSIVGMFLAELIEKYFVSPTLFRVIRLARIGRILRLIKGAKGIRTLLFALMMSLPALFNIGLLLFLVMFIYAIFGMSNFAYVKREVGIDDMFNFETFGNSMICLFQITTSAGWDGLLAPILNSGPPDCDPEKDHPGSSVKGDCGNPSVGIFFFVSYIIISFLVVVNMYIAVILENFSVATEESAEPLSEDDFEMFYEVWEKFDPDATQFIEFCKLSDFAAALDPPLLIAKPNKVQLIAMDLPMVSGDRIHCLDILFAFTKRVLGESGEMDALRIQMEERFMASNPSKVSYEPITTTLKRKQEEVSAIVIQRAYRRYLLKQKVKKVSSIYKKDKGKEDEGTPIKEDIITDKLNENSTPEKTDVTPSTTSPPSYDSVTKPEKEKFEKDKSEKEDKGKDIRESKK
Sequence (Q00954 19-218, further chain): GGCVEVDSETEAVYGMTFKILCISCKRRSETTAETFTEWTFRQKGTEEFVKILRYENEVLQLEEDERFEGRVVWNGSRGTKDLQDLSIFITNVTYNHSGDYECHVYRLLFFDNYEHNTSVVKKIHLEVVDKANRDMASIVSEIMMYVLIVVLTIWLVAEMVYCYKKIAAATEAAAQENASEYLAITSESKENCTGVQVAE
pIC50: −log10 of the molar value. Where a SMILES comes first, the peptide text is derived from it. Bridges are numbered along the chain shown (N, C = ends).
Reported pIC50 by item:
measured_quantity: pIC50

INSERT INTO assay_data (compound, measured_quantity, result_value) VALUES
  ('C[C@@H]1NC(=O)[C@H](CCCNC(=N)N)NC(=O)[C@H](C)NC(=O)[C@H](Cc2c[nH]c3ccccc23)NC(=O)[C@H](CCCNC(=N)N)NC(=O)[C@H](CCCNC(=N)N)NC(=O)[C@@H](N)CSSC[C@@H](C(N)=O)NC(=O)[C@H](CCCNC(=N)N)NC(=O)[C@H](CC(N)=O)NC1=O [PnCS1[W7A], CRRWARANRC ^*] (H-CRRWARANRC-NH2; disulfide 1-10)', 'pIC50', 6.10),
  ('C[C@@H]1NC(=O)[C@H](C)NC(=O)[C@H](CCCNC(=N)N)NC(=O)[C@H](CCCNC(=N)N)NC(=O)[C@@H](N)CSSC[C@@H](C(N)=O)NC(=O)[C@H](CCCNC(=N)N)NC(=O)[C@H](CC(N)=O)NC(=O)[C@H](Cc2c[nH]c3ccccc23)NC(=O)[C@H](CCCNC(=N)N)NC1=O [PnCS1[W4A], CRRAARWNRC ^*] (H-CRRAARWNRC-NH2; disulfide 1-10)', 'pIC50', 6.10);

----------
system_under_test: rNaV1.2 (Rattus norvegicus, UniProt P04775)
protocol_details: Two-electrode voltage-clamp on Xenopus laevis oocytes expressing NaV1.2
condition_label: read-out: Maximum % inhibition NaV1.2, peptide at 100 μM
Where a SMILES comes first, the peptide text is derived from it. Bridges are numbered along the chain shown (N, C = ends).
Parameter threshold = 80%. Response is 1 when inhibition at 100 µM meets or exceeds it, else -1.

INSERT INTO results (compound, class_label) VALUES
  ('C[C@@H]1NC(=O)[C@H](Cc2c[nH]c3ccccc23)NC(=O)[C@H](CCCNC(=N)N)NC(=O)[C@H](CCC(=O)O)NC(=O)[C@@H](N)CSSC[C@@H](C(N)=O)NC(=O)[C@H](CCCNC(=N)N)NC(=O)[C@H](CC(N)=O)NC(=O)[C@H](Cc2c[nH]c3ccccc23)NC(=O)[C@H](CCCNC(=N)N)NC1=O [PnCS1[R2E], CERWARWNRC ^*] (H-CERWARWNRC-NH2; disulfide 1-10)', -1),
  ('C[C@@H]1NC(=O)[C@H](Cc2c[nH]c3ccccc23)NC(=O)[C@H](CCCNC(=N)N)NC(=O)[C@H](C)NC(=O)[C@@H](N)CSSC[C@@H](C(N)=O)NC(=O)[C@H](CCCNC(=N)N)NC(=O)[C@H](CC(N)=O)NC(=O)[C@H](Cc2c[nH]c3ccccc23)NC(=O)[C@H](CCCNC(=N)N)NC1=O [PnCS1[R2A], CARWARWNRC ^*] (H-CARWARWNRC-NH2; disulfide 1-10)', 1),
  ('C[C@@H]1NC(=O)[C@H](Cc2c[nH]c3ccccc23)NC(=O)[C@H](CCCNC(=N)N)NC(=O)[C@H](C)NC(=O)[C@H](Cc2c[nH]c3ccccc23)NC(=O)[C@H](CCCNC(=N)N)NC(=O)[C@H](CCCNC(=N)N)NC(=O)[C@@H](N)CSSC[C@@H](C(N)=O)NC(=O)[C@H](CCCNC(=N)N)NC1=O [PnCS1[N8A], CRRWARWARC ^*] (H-CRRWARWARC-NH2; disulfide 1-10)', 1),
  ('C[C@@H]1NC(=O)[C@H](Cc2c[nH]c3ccccc23)NC(=O)[C@H](CCCNC(=N)N)NC(=O)[C@H](CCCNC(=N)N)NC(=O)[C@@H](N)CSSC[C@@H](C(N)=O)NC(=O)[C@H](CCCNC(=N)N)NC(=O)[C@H](CC(N)=O)NC(=O)[C@H](Cc2ccc(O)cc2)NC(=O)[C@H](CCCNC(=N)N)NC1=O [PnCS1[W7Y], CRRWARYNRC ^*] (H-CRRWARYNRC-NH2; disulfide 1-10)', -1),
  ('C[C@@H]1NC(=O)[C@H](Cc2c[nH]c3ccccc23)NC(=O)[C@H](CCCCN)NC(=O)[C@H](CCCNC(=N)N)NC(=O)[C@@H](N)CSSC[C@@H](C(N)=O)NC(=O)[C@H](CCCNC(=N)N)NC(=O)[C@H](CC(N)=O)NC(=O)[C@H](Cc2c[nH]c3ccccc23)NC(=O)[C@H](CCCNC(=N)N)NC1=O [PnCS1[R3K], CRKWARWNRC ^*] (H-CRKWARWNRC-NH2; disulfide 1-10)', 1),
  ('C[C@@H]1NC(=O)[C@H](Cc2c[nH]c3ccccc23)NC(=O)[C@H](CCC(=O)O)NC(=O)[C@H](CCCNC(=N)N)NC(=O)[C@@H](N)CSSC[C@@H](C(N)=O)NC(=O)[C@H](CCCNC(=N)N)NC(=O)[C@H](CC(N)=O)NC(=O)[C@H](Cc2c[nH]c3ccccc23)NC(=O)[C@H](CCCNC(=N)N)NC1=O [PnCS1[R3E], CREWARWNRC ^*] (H-CREWARWNRC-NH2; disulfide 1-10)', -1),
  ('C[C@@H]1NC(=O)[C@H](Cc2c[nH]c3ccccc23)NC(=O)[C@H](CCCNC(=N)N)NC(=O)[C@H](CCCNC(=N)N)NC(=O)[C@@H](N)CSSC[C@@H](C(N)=O)NC(=O)[C@H](CCCNC(=N)N)NC(=O)[C@H](CC(N)=O)NC(=O)[C@H](Cc2c[nH]c3ccccc23)NC(=O)[C@H](CCCNC(=N)N)NC1=O [PnCS1, CRRWARWNRC ^*] (H-CRRWARWNRC-NH2; disulfide 1-10)', 1),
  ('C[C@@H]1NC(=O)[C@H](Cc2c[nH]c3ccccc23)NC(=O)[C@H](CCCNC(=N)N)NC(=O)[C@H](CCCCN)NC(=O)[C@@H](N)CSSC[C@@H](C(N)=O)NC(=O)[C@H](CCCNC(=N)N)NC(=O)[C@H](CC(N)=O)NC(=O)[C@H](Cc2c[nH]c3ccccc23)NC(=O)[C@H](CCCNC(=N)N)NC1=O [PnCS1[R2K], CKRWARWNRC ^*] (H-CKRWARWNRC-NH2; disulfide 1-10)', 1),
  ('C[C@@H]1NC(=O)[C@H](Cc2c[nH]c3ccccc23)NC(=O)[C@H](CCCNC(=N)N)NC(=O)[C@H](CCCNC(=N)N)NC(=O)[C@@H](N)CSSC[C@@H](C(N)=O)NC(=O)[C@H](CCCNC(=N)N)NC(=O)[C@H](CCC(=O)O)NC(=O)[C@H](Cc2c[nH]c3ccccc23)NC(=O)[C@H](CCCNC(=N)N)NC1=O [PnCS1[N8E], CRRWARWERC ^*] (H-CRRWARWERC-NH2; disulfide 1-10)', -1),
  ('C[C@@H]1NC(=O)[C@H](Cc2c[nH]c3ccccc23)NC(=O)[C@H](CCCNC(=N)N)NC(=O)[C@H](CCCNC(=N)N)NC(=O)[C@@H](N)CSSC[C@@H](C(N)=O)NC(=O)[C@H](CCCCN)NC(=O)[C@H](CC(N)=O)NC(=O)[C@H](Cc2c[nH]c3ccccc23)NC(=O)[C@H](CCCNC(=N)N)NC1=O [PnCS1[R9K], CRRWARWNKC ^*] (H-CRRWARWNKC-NH2; disulfide 1-10)', -1),
  ('C[C@@H]1NC(=O)[C@H](CCC(=O)O)NC(=O)[C@H](CCCNC(=N)N)NC(=O)[C@H](CCCNC(=N)N)NC(=O)[C@@H](N)CSSC[C@@H](C(N)=O)NC(=O)[C@H](CCCNC(=N)N)NC(=O)[C@H](CC(N)=O)NC(=O)[C@H](Cc2c[nH]c3ccccc23)NC(=O)[C@H](CCCNC(=N)N)NC1=O [PnCS1[W4E], CRREARWNRC ^*] (H-CRREARWNRC-NH2; disulfide 1-10)', -1);

Attribution: paper PMC9116130
